study target: Nucleoli Translocation, AR (gene 367) (UniProt P10275)
Sequence (P10275 whole entry, looked up): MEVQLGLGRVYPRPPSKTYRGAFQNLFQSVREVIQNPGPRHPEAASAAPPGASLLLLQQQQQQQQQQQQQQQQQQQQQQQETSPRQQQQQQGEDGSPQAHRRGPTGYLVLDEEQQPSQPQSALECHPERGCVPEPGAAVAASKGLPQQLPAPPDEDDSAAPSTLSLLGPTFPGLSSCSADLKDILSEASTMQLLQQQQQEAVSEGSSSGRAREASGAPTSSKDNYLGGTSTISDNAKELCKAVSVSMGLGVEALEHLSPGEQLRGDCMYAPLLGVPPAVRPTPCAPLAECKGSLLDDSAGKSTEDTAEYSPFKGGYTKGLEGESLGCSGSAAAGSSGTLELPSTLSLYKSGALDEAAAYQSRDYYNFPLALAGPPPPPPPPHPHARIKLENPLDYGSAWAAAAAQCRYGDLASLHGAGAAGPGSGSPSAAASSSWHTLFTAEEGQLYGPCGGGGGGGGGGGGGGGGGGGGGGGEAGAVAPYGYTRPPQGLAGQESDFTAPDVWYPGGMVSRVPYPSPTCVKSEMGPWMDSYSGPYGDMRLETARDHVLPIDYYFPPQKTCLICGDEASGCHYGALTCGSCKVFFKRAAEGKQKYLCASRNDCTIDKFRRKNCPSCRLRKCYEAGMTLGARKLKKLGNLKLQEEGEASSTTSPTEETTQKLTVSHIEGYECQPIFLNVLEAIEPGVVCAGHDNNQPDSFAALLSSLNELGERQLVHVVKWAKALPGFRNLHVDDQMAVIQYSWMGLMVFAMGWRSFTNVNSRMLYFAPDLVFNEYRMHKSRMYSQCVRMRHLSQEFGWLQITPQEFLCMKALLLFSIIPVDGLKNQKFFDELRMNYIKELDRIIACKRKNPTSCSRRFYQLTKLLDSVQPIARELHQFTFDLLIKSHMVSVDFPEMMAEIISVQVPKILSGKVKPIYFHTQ
test summary: UPITT_HCI_U2OS_AR_TIF2_Nucleoli_Antagonist: University of Pittsburgh U2OS Androgen Receptor-Transcriptional Intermediary Factor 2 (AR-TIF2) Antagonism High Content Imaging Assay for Nucleoli Translocation (AID 2283997)
Results filed as inconclusive are left out. Active and inactive are the calls of the source. The calls were made as follows: active = hit-call score of the fitted dose curve at least 0.9, where 1 is the maximum; inconclusive = response in the unintended direction; inactive = score below 0.9.
Respond with a class label; see active, inactive

Q: // param item: `O=C(N[C@H]1CN2CCC1CC2)c1ccc2c(c1)OCCO2` ; yields the recorded call
Result: inactive

---

test summary: ATG_TCF_b_cat_CIS: Attagene CIS-FACTORIAL HepG2 Assay for human T-Cell-Factor with beta-catenin (TCF/b-cat) (AID 2282965)
condition label: HepG2 TCF/beta-catenin cis-reporter transcription, actives raise or lower the signal
Calls of active or inactive are those of the source. Rule for the calls: active = hit-call score of the fitted dose curve at least 0.9, where 1 is the maximum; inactive = score below 0.9.
Respond with a class label; see yes (1) (active), no (0) (inactive)

Q: // param item: `O=C(CCl)NCO` ; yields the recorded call
Result: no (0)

Q: Same read-out for `C=C(C)[C@@H]1CC=C(C=O)CC1` ?
Result: no (0)

Q: Same read-out for CN(CCCC(O)c1cccnc1)N=O (configuration not stated) ?
Result: no (0)

Q: Same read-out for `O=C(NC(=O)c1c(F)cccc1F)Nc1cc(Cl)c(F)c(Cl)c1F` ?
Result: no (0)

Q: Same read-out for `CCCCCCCCCCBr` ?
Result: no (0)

Q: Same read-out for `CCOC(=O)CCN(SN(C)C(=O)Oc1cccc2c1OC(C)(C)C2)C(C)C` ?
Result: no (0)

Q: Same read-out for `C=CC(=O)[O][Sn]([CH2]CCC)([CH2]CCC)[CH2]CCC` ?
Result: no (0)

Q: Same read-out for `Cc1cc(SCc2sc(-c3ccc(C(F)(F)F)c(F)c3)nc2C)ccc1OCC(=O)O` ?
Result: yes (1)

Q: Same read-out for `CCOP(=S)(OCC)OP(=S)(OCC)OCC` ?
Result: no (0)
